Method notes: Effective inhibition concentration for reduction of lactic acid production to less than 10% of control
Type: functional
Property name: Concentration (µg/mL)
Report only the number, with the unit µg/mL understood.

// query Assign Concentration to the following record: CC1(C)SC2C(NC(=O)N/C=C/c3ccc(Cl)cc3)C(=O)N2[C@H]1C(=O)[O-].[Na+] (stereo not given in full)
// result 1.25

// query Assign Concentration to the following record: CC1(C)SC2C(NC(=O)N/C=C/c3ccc4ccccc4c3)C(=O)N2[C@H]1C(=O)[O-].[Na+] (stereo not given in full)
// result 0.31

// query Assign Concentration to the following record: CC1(C)SC2C(NC(=O)N/C=C/c3ccc4c(c3)OCO4)C(=O)N2[C@H]1C(=O)[O-].[Na+] (stereo not given in full)
// result 0.16

// query Assign Concentration to the following record: CC(C)(C)c1ccc(/C=C/NC(=O)NC2C(=O)N3C2SC(C)(C)[C@@H]3C(=O)O)cc1 (stereo not given in full)
// result 0.16

// query Assign Concentration to the following record: CC1(C)SC2C(NC(=O)NCCc3ccccc3)C(=O)N2[C@H]1C(=O)[O-].[Na+] (stereo not given in full)
// result 0.31

// query Assign Concentration to the following record: CCOc1ccc(/C=C/NC(=O)NC2C(=O)N3C2SC(C)(C)[C@@H]3C(=O)[O-])cc1.[Na+] (stereo not given in full)
// result 0.31

// query Assign Concentration to the following record: Cc1ccc(/C=C/NC(=O)NC2C(=O)N3C2SC(C)(C)[C@@H]3C(=O)[O-])cc1.[Na+] (stereo not given in full)
// result 0.31

// query Assign Concentration to the following record: CC1(C)SC2C(NC(=O)N/C=C/C3CCCCC3)C(=O)N2[C@H]1C(=O)[O-].[Na+] (stereo not given in full)
// result 0.31

// query Assign Concentration to the following record: CC1(C)SC2C(NC(=O)NCCc3ccc4ccccc4c3)C(=O)N2[C@H]1C(=O)[O-].[Na+] (stereo not given in full)
// result 0.31

// query Assign Concentration to the following record: CC1(C)SC2C(NC(=O)NCc3ccc4ccccc4c3)C(=O)N2[C@H]1C(=O)[O-].[Na+] (stereo not given in full)
// result 0.08

====

System: Staphylococcus aureus
Method notes: In vitro Minimum inhibitory concentration against Staphylococcus aureus ATCC 6538P (penicillin G sensitive)
Assay type: functional
Property name: MIC (µg/mL)
Report only the number, with the unit µg/mL understood.

// query Assign MIC to the following record: CC1(C)SC2C(NC(=O)NCCc3ccc4ccccc4c3)C(=O)N2[C@H]1C(=O)[O-].[Na+] (some centres undefined)
// result 0.1

// query Assign MIC to the following record: CC1(C)SC2C(NC(=O)N/C=C/C3CCCCC3)C(=O)N2[C@H]1C(=O)[O-].[Na+] (some centres undefined)
// result 0.4

// query Assign MIC to the following record: CC(C)(C)c1ccc(/C=C/NC(=O)NC2C(=O)N3C2SC(C)(C)[C@@H]3C(=O)[O-])cc1.[Na+] (some centres undefined)
// result 3.12

// query Assign MIC to the following record: CC1(C)SC2C(NC(=O)N/C=C/c3ccc(Cl)cc3)C(=O)N2[C@H]1C(=O)[O-].[Na+] (some centres undefined)
// result 6.25

// query Assign MIC to the following record: CC1(C)S[C@@H]2[C@H](NC(=O)Cc3ccccc3)C(=O)N2[C@H]1C(=O)O
// result 0.05

// query Assign MIC to the following record: CC1(C)SC2C(NC(=O)N/C=C/c3ccc4ccccc4c3)C(=O)N2[C@H]1C(=O)[O-].[Na+] (some centres undefined)
// result 3.12

// query Assign MIC to the following record: CC1(C)SC2C(NC(=O)NCc3ccc4ccccc4c3)C(=O)N2[C@H]1C(=O)[O-].[Na+] (some centres undefined)
// result 0.05

// query Assign MIC to the following record: CC1(C)SC2C(NC(=O)NCCc3ccccc3)C(=O)N2[C@H]1C(=O)[O-].[Na+] (some centres undefined)
// result 0.1

// query Assign MIC to the following record: CC1(C)SC2C(NC(=O)N/C=C/c3ccc4c(c3)OCO4)C(=O)N2[C@H]1C(=O)[O-].[Na+] (some centres undefined)
// result 6.25
